- system-name: human NaV 1.7 (Homo sapiens, UniProt Q15858)
- Sequence (Q15858 whole entry): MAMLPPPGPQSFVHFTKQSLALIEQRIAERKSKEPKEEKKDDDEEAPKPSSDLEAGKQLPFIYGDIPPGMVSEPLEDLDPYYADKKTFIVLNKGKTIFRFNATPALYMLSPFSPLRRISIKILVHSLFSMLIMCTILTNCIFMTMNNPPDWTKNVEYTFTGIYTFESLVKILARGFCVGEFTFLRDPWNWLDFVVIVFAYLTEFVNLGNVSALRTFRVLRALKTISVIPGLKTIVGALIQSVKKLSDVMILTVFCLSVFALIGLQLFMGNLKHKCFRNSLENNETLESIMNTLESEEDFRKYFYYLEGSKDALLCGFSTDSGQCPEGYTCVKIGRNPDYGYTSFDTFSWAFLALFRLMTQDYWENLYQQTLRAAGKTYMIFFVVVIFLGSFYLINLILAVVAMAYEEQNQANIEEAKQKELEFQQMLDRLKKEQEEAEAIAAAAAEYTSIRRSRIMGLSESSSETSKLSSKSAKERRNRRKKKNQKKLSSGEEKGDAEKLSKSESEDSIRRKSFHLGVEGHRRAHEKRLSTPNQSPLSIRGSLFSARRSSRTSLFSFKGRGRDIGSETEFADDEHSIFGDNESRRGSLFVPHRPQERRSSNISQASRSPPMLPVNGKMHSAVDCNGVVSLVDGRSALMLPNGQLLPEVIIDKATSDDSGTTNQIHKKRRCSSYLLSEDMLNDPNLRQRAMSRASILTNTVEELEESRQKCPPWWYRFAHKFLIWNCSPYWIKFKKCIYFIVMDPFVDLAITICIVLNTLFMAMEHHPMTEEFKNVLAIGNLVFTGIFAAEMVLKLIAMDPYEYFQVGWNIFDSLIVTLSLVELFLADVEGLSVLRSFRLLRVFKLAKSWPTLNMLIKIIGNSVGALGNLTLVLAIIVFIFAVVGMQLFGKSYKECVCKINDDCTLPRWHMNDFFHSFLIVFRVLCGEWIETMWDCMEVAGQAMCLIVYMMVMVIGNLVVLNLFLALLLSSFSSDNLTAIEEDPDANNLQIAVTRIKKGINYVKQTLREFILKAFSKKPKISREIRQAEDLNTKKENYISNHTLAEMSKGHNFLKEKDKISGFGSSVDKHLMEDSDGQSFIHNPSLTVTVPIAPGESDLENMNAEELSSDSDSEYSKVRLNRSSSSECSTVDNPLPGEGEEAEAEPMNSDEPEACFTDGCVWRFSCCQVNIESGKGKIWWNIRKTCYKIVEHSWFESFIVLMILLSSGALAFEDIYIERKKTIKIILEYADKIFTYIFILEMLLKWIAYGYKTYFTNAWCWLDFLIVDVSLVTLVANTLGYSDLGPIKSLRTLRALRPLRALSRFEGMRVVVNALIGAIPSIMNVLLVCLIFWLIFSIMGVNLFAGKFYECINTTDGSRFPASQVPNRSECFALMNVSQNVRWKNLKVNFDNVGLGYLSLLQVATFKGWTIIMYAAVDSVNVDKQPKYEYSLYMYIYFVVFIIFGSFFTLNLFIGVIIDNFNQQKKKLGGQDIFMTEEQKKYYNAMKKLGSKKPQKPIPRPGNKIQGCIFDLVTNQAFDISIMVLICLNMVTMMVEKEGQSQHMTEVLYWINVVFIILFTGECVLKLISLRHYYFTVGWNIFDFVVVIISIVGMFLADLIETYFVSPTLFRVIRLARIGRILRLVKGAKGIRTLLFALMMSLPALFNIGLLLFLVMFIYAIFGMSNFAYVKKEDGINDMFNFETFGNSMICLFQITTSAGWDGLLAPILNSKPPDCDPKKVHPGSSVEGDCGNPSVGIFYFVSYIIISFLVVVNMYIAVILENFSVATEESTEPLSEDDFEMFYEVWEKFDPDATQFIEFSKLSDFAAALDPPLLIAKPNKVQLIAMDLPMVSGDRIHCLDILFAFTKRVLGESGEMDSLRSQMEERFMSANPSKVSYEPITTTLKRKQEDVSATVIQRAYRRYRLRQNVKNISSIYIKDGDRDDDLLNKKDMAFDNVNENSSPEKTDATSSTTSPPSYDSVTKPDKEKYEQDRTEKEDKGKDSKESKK
- assay-explanation: E-VIPR optical membrane potential assay with electrical stimulation
- condition-parameters: sodium channel inhibition; read-out: Binned Activity Data (IC50)
- Description: Assays for Detecting and Measuring NaV Inhibition Properties of Compound E-VIPR Optical Membrane Potential Assay Method with Electrical Stimulation Sodium channels are voltage-dependent proteins that can be activated by inducing membrane voltage changes by applying electric fields. The electrical stimulation instrument and methods of use are described in Ion Channel Assay Methods PCT/US01/21652, herein incorporated by reference and are referred to as E-VIPR. […] 7) Read Plate on E-VIPR. […]
measured-quantity: IC50

Answered examples (5):
molecular-string	experimental-result
C[C@](O)(CO)c1ccc(C(=O)N2CCC3(CC2)Oc2ccccc2-n2c(C(F)(F)F)ccc23)cc1	> 5 µM
O=C(c1cc2occc2[nH]1)N1CCC2(CC1)Oc1ccccc1-n1c(C(F)(F)F)ccc12	> 5 µM
COc1ccccc1C(=O)N1CCC2(CC1)Oc1cc(F)ccc1-c1c2cnn1C	≤ 2 µM
Cn1ncc2c1-c1ccccc1OC21CCN(C(=O)c2cccc3cccnc23)CC1	≤ 2 µM
CC(C)S(=O)(=O)c1ccc(C(=O)N2CCC3(CC2)Oc2cc(CO)ccc2-n2c(C#N)ccc23)cc1	≤ 2 µM

Q) Give a short answer stating reported IC50 for Cc1cc(C(=O)N2CCC3(CC2)Oc2ccccc2-c2c3cnn2C)c(C)cc1OC(C)C .
A) ≤ 2 µM

Q) Give a short answer stating reported IC50 for Cn1ncc2c1-c1ccccc1OC21CCN(C(=O)c2ccccc2OC(F)F)CC1 .
A) ≤ 2 µM

Q) Give a short answer stating reported IC50 for COc1ccccc1C(=O)N1CCC2(CC1)Oc1ccc(F)cc1-c1c2cnn1C .
A) ≤ 2 µM
